Organism: Rattus norvegicus
MEASUREMENT NOTES: DrugMatrix - Regimen: Daily Repeat
Type: toxicity, organism-based, Sprague-Dawley
Design: regimen Daily Repeat, gender Male, age 6-8 weeks
TEST CONTEXT: in vivo, po, 0 mg/kg, 120 h, tissue Blood, route oral GAVAGE, dose level Control, time 5 day, vehicle 100 % WATER
Catalogue of MEAN CORPUSCULAR VOLUME values
Express your answer in fL, writing the number without its unit.

INSERT INTO measurements (molecule, value_observed) VALUES
  ('N[C@@H](Cc1ccc(O)c(O)c1)C(=O)O', 63.15);

Q: Return reported MEAN CORPUSCULAR VOLUME; argument: Clc1cccc(Cl)c1N=C1NCCN1
Ans: 59.52

Q: Could you tell me which MEAN CORPUSCULAR VOLUME is on file for Cc1onc(-c2ccccc2Cl)c1C(=O)N[C@@H]1C(=O)N2[C@@H]1SC(C)(C)[C@@H]2C(=O)O ?
Ans: 62.68
